Molecular target: double-labeled CYP3A4 (C64/C468)-DY/ER (Homo sapiens, UniProt P08684, S18F, form not given)
Sequence (P08684 13-503 S18F, form open): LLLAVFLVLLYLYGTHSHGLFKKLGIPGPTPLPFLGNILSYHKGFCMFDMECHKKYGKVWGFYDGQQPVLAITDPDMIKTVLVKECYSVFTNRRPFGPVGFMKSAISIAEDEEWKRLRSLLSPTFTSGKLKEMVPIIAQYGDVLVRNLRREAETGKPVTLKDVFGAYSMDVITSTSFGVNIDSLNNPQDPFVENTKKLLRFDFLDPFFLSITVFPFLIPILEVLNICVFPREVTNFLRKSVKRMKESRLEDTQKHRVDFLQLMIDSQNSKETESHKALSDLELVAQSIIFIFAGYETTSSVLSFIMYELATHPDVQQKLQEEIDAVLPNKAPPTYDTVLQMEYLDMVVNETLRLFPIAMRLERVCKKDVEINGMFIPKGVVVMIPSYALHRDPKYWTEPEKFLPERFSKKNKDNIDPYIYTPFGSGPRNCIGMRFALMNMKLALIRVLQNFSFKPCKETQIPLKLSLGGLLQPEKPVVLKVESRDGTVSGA
Experiment: Time-resolved LRET (phosphorescence lifetime measurements)
Details: Table S2; C64/C468-DY/ER; same ligand concentrations
Counter-ions that a name gives are not always drawn.
Quick rule for you: R (interprobe distance with ligand), lifetime measurements at 40 Å or higher means label 1, lower means label 0.

# bool: R (interprobe distance with ligand), lifetime measurements of O=c1cc(-c2ccccc2)oc2c1ccc1ccccc12 >= 40 Å
label 0

# bool: R (interprobe distance with ligand), lifetime measurements of OCCCCc1ccc2ccc3cccc4ccc1c2c34 >= 40 Å
label 0

# bool: R (interprobe distance with ligand), lifetime measurements of CC(C)C[C@H]1C(=O)N2CCC[C@H]2[C@]2(O)O[C@](NC(=O)[C@@H]3C=C4c5cccc6[nH]c(Br)c(c56)C[C@H]4N(C)C3)(C(C)C)C(=O)N12 [Bromocriptine, Bromocriptine mesylate] >= 40 Å
label 0

# bool: R (interprobe distance with ligand), lifetime measurements of C[C@]12CC[C@H]3[C@@H](CCC4=CC(=O)CC[C@@]43C)[C@@H]1CC[C@@H]2O >= 40 Å
label 1

# bool: R (interprobe distance with ligand), lifetime measurements of CC(C)CCC[C@@H](C)[C@H]1CC[C@H]2[C@@H]3CC=C4C[C@@H](O)CC[C@]4(C)[C@H]3CC[C@]12C >= 40 Å
label 0

* * *

Biological target: double-labeled CYP3A4 (C64/C468)-DY/ER (Homo sapiens, UniProt P08684, S18F, form not given)
Assay: Time-resolved LRET (phosphorescence lifetime measurements)
Details: Table S1; (C64/C468)-DY/ER; same ligand concentrations
Structures can show the parent of a compound that is named as a salt.
assay readout: F1 (fraction of first exponential) (%)
Quick note: give the figure in %, leave out the unit.

# F1 (fraction of first exponential) (compound: CC(C)C[C@H]1C(=O)N2CCC[C@H]2[C@]2(O)O[C@](NC(=O)[C@@H]3C=C4c5cccc6[nH]c(Br)c(c56)C[C@H]4N(C)C3)(C(C)C)C(=O)N12 [Bromocriptine, Bromocriptine mesylate] ) is 44

# F1 (fraction of first exponential) (compound: OCCCCc1ccc2ccc3cccc4ccc1c2c34 [1-PB, 1-pyrenebutanol] ) is 46

# F1 (fraction of first exponential) (compound: O=c1cc(-c2ccccc2)oc2c1ccc1ccccc12 [ANF, α-naphthoflavone] ) is 45

# F1 (fraction of first exponential) (compound: C[C@]12CC[C@H]3[C@@H](CCC4=CC(=O)CC[C@@]43C)[C@@H]1CC[C@@H]2O [Testosterone, testosterone] ) is 39

# F1 (fraction of first exponential) (compound: CC(C)CCC[C@@H](C)[C@H]1CC[C@H]2[C@@H]3CC=C4C[C@@H](O)CC[C@]4(C)[C@H]3CC[C@]12C [Cholesterol, cholesterol] ) is 43

* * *

Molecular target: CYP3A4 (double-labeled C377/C468-DY/ER) (Homo sapiens, UniProt P08684, form not given/S18F)
Sequence (P08684 13-503 S18F, form open): as above
Assay: Ligand-induced spin shift, absorbance titration
Assay type: binding
Conditions: purified double-labeled CYP3A4 C377/C468-DY/ER protein, pH 7.4, read-out: K D or S 50
Counter-ions that a name gives are not always drawn.
assay readout: Kd (nM)
Quick note: give the figure in nM, leave out the unit.

# Kd (compound: CC(C)C[C@H]1C(=O)N2CCC[C@H]2[C@]2(O)O[C@](NC(=O)[C@@H]3C=C4c5cccc6[nH]c(Br)c(c56)C[C@H]4N(C)C3)(C(C)C)C(=O)N12 [Bromocriptine, Bromocriptine mesylate] ) is 930
